- TESTED ON: TgCDPK1 (Toxoplasma gondii, UniProt Q9BJF5)
- Sequence (Q9BJF5 1-507): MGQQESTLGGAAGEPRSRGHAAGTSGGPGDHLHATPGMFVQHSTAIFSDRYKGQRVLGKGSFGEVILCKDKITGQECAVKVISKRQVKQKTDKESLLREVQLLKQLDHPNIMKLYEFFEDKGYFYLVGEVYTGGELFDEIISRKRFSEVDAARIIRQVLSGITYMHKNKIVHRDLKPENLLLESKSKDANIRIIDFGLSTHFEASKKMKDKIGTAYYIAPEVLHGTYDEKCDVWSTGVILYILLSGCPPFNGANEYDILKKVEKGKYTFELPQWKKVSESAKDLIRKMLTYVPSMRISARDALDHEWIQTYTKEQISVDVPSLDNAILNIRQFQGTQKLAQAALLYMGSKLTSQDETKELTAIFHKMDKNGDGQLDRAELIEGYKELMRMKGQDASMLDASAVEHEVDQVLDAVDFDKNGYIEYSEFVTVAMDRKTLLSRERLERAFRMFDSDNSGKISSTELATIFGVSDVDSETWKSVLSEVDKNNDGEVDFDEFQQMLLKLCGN
- Assay type: biochemical
- PROTOCOL CONDITIONS: read-out: IC50 (μM) TgCDPK1
Kindly supply the reported log10 IC50 values for the records listed here.
Reminder: these figures are log10 of reported IC50, in µM before transformation.

Cn1nc(Cc2cccc3ccccc23)c2c(N)ncnc21
-0.34

Hi there! I need log10 IC50 for each item below, if you can.
1. CC(C)(C)n1nc(-c2ccc(NC(=O)C3CCCCC3)cc2)c2c(N)ncnc21
2. Cc1ccc(-c2nn(C(C)C)c3ncnc(N)c23)cc1C
3. CCOc1ccc2cc(-c3nc(C(C)C)n4ccnc(N)c34)ccc2c1
4. C#CCn1nc(Cc2cccc3ccccc23)c2c(N)ncnc21
5. Cc1ccc(-c2nn(C(C)C)c3ncnc(N)c23)cc1
6. CS(=O)(=O)N1CCC(Cn2nc(Cc3cccc4ccccc34)c3c(N)ncnc32)CC1

Solution:
1. -0.84
2. -2.05
3. -1.11
4. -1.07
5. -1.89
6. -0.25

====

- PROCEDURE DETAILS: Blood levels after oral gavage dosing of mice (LC-MS)
- PROTOCOL CONDITIONS: mouse, in vivo, po, 50 mg/kg
EXPERIMENTAL READOUT: AUC (µM·h)
Numbers only, in µM·h.

Exercise: Give reported AUC value for CCOc1ccc2cc(-c3nn(CC4CCNCC4)c4ncnc(N)c34)ccc2c1
Solution: 5.18

====

- TESTED ON: HckKD (Homo sapiens (Human), UniProt P08631)
- Sequence (P08631 262-515): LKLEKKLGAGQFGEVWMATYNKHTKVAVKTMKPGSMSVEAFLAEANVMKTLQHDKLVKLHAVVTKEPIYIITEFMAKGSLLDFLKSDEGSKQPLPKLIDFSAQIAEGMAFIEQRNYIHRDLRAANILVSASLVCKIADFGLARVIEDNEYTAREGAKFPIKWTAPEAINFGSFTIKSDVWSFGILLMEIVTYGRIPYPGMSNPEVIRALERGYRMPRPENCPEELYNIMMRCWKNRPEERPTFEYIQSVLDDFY
- PROCEDURE DETAILS: Tyrosine kinase IC50, HckKD
- Format: biochemical
- PROTOCOL CONDITIONS: Table 9
Can you tell me IC50 for the items I'm about to list?
Answers are plain numbers, in µM.

CC(C)n1nc(Cc2cccc3ccccc23)c2c(N)ncnc21 [Compound 3]
1.38

Shift focus to the following entry.
Exercise: Supply measured IC50 of CCCOc1ccc2cc(-c3nn(C(C)C)c4ncnc(N)c34)ccc2c1 [Compound 12] in your reply.
Solution: 0.244

====

Field: IC50. Provide a value for each of the compounds that follow.
- TESTED ON: SRC (Homo sapiens (Human))
- Sequence (P12931 whole entry, looked up): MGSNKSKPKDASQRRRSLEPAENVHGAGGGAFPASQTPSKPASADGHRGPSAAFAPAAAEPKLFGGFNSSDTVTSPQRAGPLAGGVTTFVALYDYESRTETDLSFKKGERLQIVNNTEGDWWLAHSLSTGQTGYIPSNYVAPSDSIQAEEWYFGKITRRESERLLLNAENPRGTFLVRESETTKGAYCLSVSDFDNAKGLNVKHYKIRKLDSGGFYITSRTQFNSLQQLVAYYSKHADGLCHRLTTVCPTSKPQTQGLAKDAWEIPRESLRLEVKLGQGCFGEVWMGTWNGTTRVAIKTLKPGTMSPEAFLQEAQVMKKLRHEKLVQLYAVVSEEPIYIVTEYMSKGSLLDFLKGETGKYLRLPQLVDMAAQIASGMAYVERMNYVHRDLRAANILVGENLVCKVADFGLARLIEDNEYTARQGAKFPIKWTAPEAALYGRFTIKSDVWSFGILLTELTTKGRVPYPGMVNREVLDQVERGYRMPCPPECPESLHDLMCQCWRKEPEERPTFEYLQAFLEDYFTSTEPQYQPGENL
- PROTOCOL CONDITIONS: read-out: IC50 (μM) Src

CC(C)(C)n1nc(-c2cccc3ccccc23)c2c(N)ncnc21 [Compound 1]
1.3 µM

For every listed record, write down its IC50.
1. COc1ccc2cc(-c3nn(C(C)C)c4ncnc(N)c34)ccc2c1 [Compound 7q]
2. Nc1ncnc2c1c(Cc1cccc3ccccc13)nn2CC1CCNCC1 [Compound 5h]

Solution:
1. 0.77 µM
2. > 20 µM

====

- TESTED ON: CpCDPK1 (Cryptosporidium parvum (strain Iowa II))
- Sequence (A3FQ16 1-538): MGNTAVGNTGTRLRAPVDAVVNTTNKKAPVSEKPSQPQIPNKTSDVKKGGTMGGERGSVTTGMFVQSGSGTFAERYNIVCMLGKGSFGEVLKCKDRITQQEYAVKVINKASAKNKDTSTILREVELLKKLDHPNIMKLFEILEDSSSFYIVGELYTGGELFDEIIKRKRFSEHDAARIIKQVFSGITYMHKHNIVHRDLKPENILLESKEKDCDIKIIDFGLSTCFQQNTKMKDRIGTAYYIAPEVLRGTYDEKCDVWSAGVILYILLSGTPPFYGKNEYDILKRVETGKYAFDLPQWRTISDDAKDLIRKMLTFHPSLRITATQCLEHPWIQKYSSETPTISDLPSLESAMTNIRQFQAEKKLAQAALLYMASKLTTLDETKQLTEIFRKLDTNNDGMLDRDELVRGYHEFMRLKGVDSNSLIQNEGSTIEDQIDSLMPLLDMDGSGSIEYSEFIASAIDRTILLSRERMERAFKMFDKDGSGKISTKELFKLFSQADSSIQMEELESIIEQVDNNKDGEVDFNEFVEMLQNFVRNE
- PROCEDURE DETAILS: biochemical
- Format: biochemical
- PROTOCOL CONDITIONS: Table 3; average of three assays ± (SEM); read-out: CpCDPK1 IC50
EXPERIMENTAL READOUT: IC50

Exercise: Give the reported value of IC50 for this record: Nc1ncnc2c1c(Cc1cccc3ccccc13)nn2Cc1ccccc1
Solution: > 3 µM

====

- TESTED ON: CpCDPK1 (Cryptosporidium parvum (strain Iowa II))
- PROCEDURE DETAILS: biochemical
- Type: biochemical
- PROTOCOL CONDITIONS: read-out: IC50 (μM) CpCDPK1
EXPERIMENTAL READOUT: IC50

Use these answered entries as a reference point.
CC(=O)N1CCC(CCn2nc(Cc3cccc4ccccc34)c3c(N)ncnc32)CC1
0.179 µM
COc1ccc(-c2nn(C(C)C)c3ncnc(N)c23)cc1
0.41 µM
Cc1cccc(-c2nn(C(C)C)c3ncnc(N)c23)c1
0.114 µM
CC(C)(C)n1nc(-c2cccc3ccccc23)c2c(N)ncnc21
> 3 µM
CC(C)n1nc(-c2ccc3c(c2)OCO3)c2c(N)ncnc21
0.312 µM
Cn1nc(Cc2cccc3ccccc23)c2c(N)ncnc21
0.413 µM
Nc1ncnc2c1c(Cc1cccc3ccccc13)nn2C1CCNCC1
0.056 µM
CSc1cccc(-c2nn(C(C)C)c3ncnc(N)c23)c1
0.121 µM

For each of the molecules below, state IC50.
1. COc1ccc2cc(-c3nn(C(C)C)c4ncnc(N)c34)ccc2c1
2. COc1ccc(-c2nn(C(C)C)c3ncnc(N)c23)cc1C
3. CC(=O)N1CCC(Cn2nc(Cc3cccc4ccccc34)c3c(N)ncnc32)CC1
4. Cc1cc(-c2nn(C(C)C)c3ncnc(N)c23)ccc1F
5. Cc1ccc(-c2nn(C(C)C)c3ncnc(N)c23)cc1

Solution:
1: 0.005 µM; 2: 0.017 µM; 3: 0.36 µM; 4: 0.053 µM; 5: 0.087 µM

====

- PROCEDURE DETAILS: Solubility in buffers of various pH
- Type: physicochemical
- PROTOCOL CONDITIONS: buffer, pH 6.5, aqueous buffer; read-out: Experimental Solubility pH 6.5
Assignment: determine reported solubility for the given molecules.
Give bare numbers, in µM.

CC(C)n1nc(-c2ccc(Cl)cc2)c2c(N)ncnc21
45

For each of the molecules below, state solubility.
1. CCOc1ccc2cc(-c3nn(C(C)(C)C)c4ncnc(N)c34)ccc2c1
2. CC(C)(C)n1nc(-c2ccccc2)c2c(N)ncnc21
3. CCOc1ccc2cc(-c3nc(C(C)C)n4ccnc(N)c34)ccc2c1

Solution:
1: 1; 2: 22; 3: 29

Report solubility for every entry below.
1. CCCCOc1ccc2cc(-c3nn(CC4CCNCC4)c4ncnc(N)c34)ccc2c1
2. CCOc1ccc2cc(-c3nn(C4CCNCC4)c4ncnc(N)c34)ccc2c1
3. Cn1ncc2cc(-c3nn(CC4CCNCC4)c4ncnc(N)c34)ccc21
4. CC(C)COc1ccc2cc(-c3nn(CC4CCNCC4)c4ncnc(N)c34)ccc2c1
5. Cc1cccc2[nH]c(-c3nc(C(C)(C)C)n4ccnc(N)c34)cc12

Solution:
1: 45; 2: 51; 3: 43; 4: 38; 5: 36

====

- PROCEDURE DETAILS: in vivo
- PROTOCOL CONDITIONS: mouse, ip
EXPERIMENTAL READOUT: AUC (µM·h)
Numbers only, in µM·h.

COc1ccc2cc(-c3nn(CC4CCNCC4)c4ncnc(N)c34)ccc2c1 [Compound 28]
151

Please find the next molecule below.
Exercise: # return recorded AUC for input COc1ccc2cc(-c3nn(C(C)C)c4ncnc(N)c34)ccc2c1 [Compound 7q]
Solution: 4.6

====

- TESTED ON: PfCDPK4 (Plasmodium falciparum (isolate 3D7), UniProt Q8IBS5)
- PROCEDURE DETAILS: biochemical
Definition: the class of an entry is the range in small value: < 0.2 µM; mid value: ≥ 0.2 µM and < 0.6 µM; large value: ≥ 0.6 µM that contains its EC50.

Examples from the recorded data:
CCOc1ccc2cc(-c3nc(C(C)C)n4ccnc(N)c34)ccc2c1
mid value
CC(C)n1nc(-c2cnc3ccccc3c2)c2c(N)ncnc21
small value
Cn1ccc2cc(-c3nn(C(C)(C)C)c4ncnc(N)c34)ccc21
mid value
CC(C)COc1ccc2cc(-c3nn(CC4CCNCC4)c4ncnc(N)c34)ccc2c1
small value
Nc1ncnc2c1c(-c1ccc3cc(OCc4ccccc4Cl)ccc3c1)nn2CC1CCNCC1
small value

Exercise: Sort CC(C)n1nc(-c2ccc3cc(OCc4ccc(CC(F)(F)F)c(Cl)c4)ccc3c2)c2c(N)ncnc21 into one of the categories.
Solution: mid value

Exercise: Entry CC(C)(C)n1nc(-c2ccccc2)c2c(N)ncnc21 belongs to which category?
Solution: mid value

Exercise: Band for CC(C)n1nc(-c2ccc3ccccc3c2)c2c(N)ncnc21 ?
Solution: small value

Exercise: Which class does CC(C)C(=O)Nc1ccc(-c2nn(C(C)(C)C)c3ncnc(N)c23)cc1 fall in?
Solution: mid value

Exercise: Class label required: Cc1ccccc1COc1ccc2cc(-c3nn(C(C)C)c4ncnc(N)c34)ccc2c1
Solution: large value

Exercise: Input CCOc1ccc2cc(-c3nn(C(C)(C)C)c4ncnc(N)c34)ccc2c1 ; output its category
Solution: large value

Exercise: Exam item: assign CC(C)(C)c1nc(-c2cnc3ccccc3c2)c2c(N)nccn12 to the correct category.
Solution: mid value

Exercise: Lab note: which band did CCCOc1ccc2cc(-c3nn(C(C)C)c4ncnc(N)c34)ccc2c1 land in?
Solution: mid value

Exercise: Please report the category associated with CC(C)n1nc(-c2ccc3cc(OCc4cc(F)cc(Cl)c4)ccc3c2)c2c(N)ncnc21 , nothing else.
Solution: large value

====

- System: human lymphocyte (CRL8155)
- PROCEDURE DETAILS: Growth inhibition of human cell line CRL8155
- PROTOCOL CONDITIONS: 30 μM
For each entry below, report its Cell Toxicity CRL8155, % at 30 μM value.

Use these answered entries as a reference point.
Nc1ncnc2c1c(-c1ccc3ccccc3c1)nn2CC1CCNCC1
<30% at 30 μM
Nc1ncnc2c1c(-c1ccc3cc(O)ccc3c1)nn2CC1CCNCC1
<30% at 30 μM
CCOc1ccc2cc(-c3nn(C4CCN(C)CC4)c4ncnc(N)c34)ccc2c1
<30% at 30 μM
CC(C)(C)n1nc(-c2ccc3ccccc3c2)c2c(N)ncnc21
<30% at 30 μM

Kindly review the next molecule as well.
Exercise: Fill in Cell Toxicity CRL8155, % at 30 μM for CC(C)(C)c1nc(-c2ccc3ccccc3c2)c2c(N)nccn12 tested with human lymphocyte (CRL8155).
Solution: 48% at 30 μM
